Measured values drawn from patent US20260242478A1 for this set.

# key: entry, value: phage binding ELISA signal
target: T1, PSMA Fab (006 PSMA Fab); experiment: phage ELISA: clonal phage supernatant on biotinylated PSMA Fab captured on neutravidin plate, wells pre-incubated with PSMA antigen as competitor; anti-M13 HRP detection
T1 construct: also called Anti-PSMA Fab
Readout Name: phage binding ELISA signal

EDVLCKPLWMCFGF (tested as crude clonal phage supernatant) [Phage-3363 (Peptide-180 library peptide)]
0.0901
WMPYCVPHWMCDGF (tested as crude clonal phage supernatant) [Phage-3361 (Peptide-180 library peptide)]
0.119
VDHVCRPIWMCIGF (tested as crude clonal phage supernatant) [Phage-3352 (Peptide-180 library peptide)]
0.0934
HDLSCVPRWMCDGF (tested as crude clonal phage supernatant) [Phage-3362 (Peptide-180 library peptide)]
0.0671
